Assay: yeast display, Sf9 membrane polyspecificity reagent, FACS + sequencing; frameworks hold sequencing errors
Experimental Endpoint: polyreactivity (PSR sort gate)

- QVQLVESVGGLVQAGGSLRLSCAASGRIFSTYAMGWYRQAPGKERELVAAIRFSGTSTYADSVKGRFTISRDNAKNTVYLQMNSLKPEDTAVDYCAAQRYTYYRRYGYLGQGTQVTVSS: high polyreactivity
- QVQLVESGGGLVQAGGSLRLSCAASGSTFFTYAMGWYRQAPGKERELVAAITRGGSSYYADSVKGRFTISRDNAKNTVYLLMNSLKPEDTAVYDCAARVSYRYGYWGQGTQVTVSS: high polyreactivity
- QVQLVESGGGLVQAGGSLRLSCAASGSIIVDNAMGWYRQAHGKERELVAAITDSGGRTYYADSVKGRYTISRDNAKNTVYLQMNSLKPEDTAVYYCNKQYIYTGRYSDGFDYCGQGTQVTVSS: low polyreactivity
- QVQLVESGGGLVQAGGSLRLSCAASGFTFDKNVMGWYRQAPGKERELVAAISVRGGTTYYADSVKGRFTISRDNAKNTVYLQMNSLKPEDTAVYYCAARAYGPPARYDSWGQGTQVTVSS: low polyreactivity

Continue with the sequence presented below.
Form field: reported polyreactivity (PSR sort gate) of QVQLEESGVGLVQAGGSLRLICAASGITLFHYVMGWYRQAPGKERELVAVISSSGGSTYYADSVKGRFTISRDNAKNTVYLQMNSLKPEDTAVYYCAAETDSRKARVLYDCWGQGTQVTVSS
high polyreactivity
